# Study Target: α1β2γ2L GABAA receptor (α1 subunit) (Homo sapiens, UniProt P14867+P18507)
# Construct: recombinant α1β2γ2L receptor in Xenopus laevis oocytes; with GABAA receptor β2 (GABRB2) and γ2L (GABRG2) subunits
# Sequence (P14867 28-456): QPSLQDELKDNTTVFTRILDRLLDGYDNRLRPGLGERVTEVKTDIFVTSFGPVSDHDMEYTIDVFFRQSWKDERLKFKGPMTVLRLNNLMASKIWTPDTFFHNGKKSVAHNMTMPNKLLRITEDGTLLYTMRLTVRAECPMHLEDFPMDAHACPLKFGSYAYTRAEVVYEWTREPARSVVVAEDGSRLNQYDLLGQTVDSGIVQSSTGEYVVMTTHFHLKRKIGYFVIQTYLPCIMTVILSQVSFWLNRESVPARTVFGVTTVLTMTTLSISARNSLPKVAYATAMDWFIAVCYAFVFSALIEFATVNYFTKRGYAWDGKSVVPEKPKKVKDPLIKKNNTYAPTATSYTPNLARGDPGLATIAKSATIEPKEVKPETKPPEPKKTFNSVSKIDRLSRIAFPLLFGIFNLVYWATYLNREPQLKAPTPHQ
# Sequence (P18507 40-475): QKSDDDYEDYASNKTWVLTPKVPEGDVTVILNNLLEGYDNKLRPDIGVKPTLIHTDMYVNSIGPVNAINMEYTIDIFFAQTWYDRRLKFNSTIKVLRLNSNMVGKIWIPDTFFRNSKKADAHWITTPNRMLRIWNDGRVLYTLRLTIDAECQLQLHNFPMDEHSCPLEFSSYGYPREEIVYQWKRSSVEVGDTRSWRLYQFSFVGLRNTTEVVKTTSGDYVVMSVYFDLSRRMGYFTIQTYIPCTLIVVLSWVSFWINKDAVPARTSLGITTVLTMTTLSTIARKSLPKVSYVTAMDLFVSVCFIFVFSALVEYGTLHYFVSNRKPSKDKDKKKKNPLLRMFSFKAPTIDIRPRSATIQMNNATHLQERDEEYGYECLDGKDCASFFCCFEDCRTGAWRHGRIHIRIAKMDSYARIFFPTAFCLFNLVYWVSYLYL
# Sequence (P47870 26-512 partner): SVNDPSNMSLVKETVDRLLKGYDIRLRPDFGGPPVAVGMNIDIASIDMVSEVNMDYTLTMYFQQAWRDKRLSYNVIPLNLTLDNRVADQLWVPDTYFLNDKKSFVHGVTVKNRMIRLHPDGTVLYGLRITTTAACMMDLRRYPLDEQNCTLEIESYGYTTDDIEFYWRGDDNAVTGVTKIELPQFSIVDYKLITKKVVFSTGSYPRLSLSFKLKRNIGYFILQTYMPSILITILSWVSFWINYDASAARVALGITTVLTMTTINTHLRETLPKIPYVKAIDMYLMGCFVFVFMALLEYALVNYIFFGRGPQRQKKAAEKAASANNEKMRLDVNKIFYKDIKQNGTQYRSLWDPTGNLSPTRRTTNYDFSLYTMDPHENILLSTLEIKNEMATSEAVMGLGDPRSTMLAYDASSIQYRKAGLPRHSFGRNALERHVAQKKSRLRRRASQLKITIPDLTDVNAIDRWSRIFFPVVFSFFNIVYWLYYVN
# Procedure Summary: two-electrode voltage clamp of GABA currents in oocytes; also […] [3H]flumazenil displacement at […] in bovine membranes
Property: EC50 (µM)

- COc1ccc2cnc3c(C(=O)c4cccs4)cnn3c2c1: 12
